Reported values of microsomal CLint for individual entries
Test: Microsomal stability in mouse liver microsomes assessed as intrinsic clearance at […] and measured upto 60 mins by LC-MS/MS analysis
Type: ADME, Microsome
Conditions: read-out: CLH
Your answer is read as µL/min/mg, so omit the unit and give the number.

compound="CC(C)c1ccc(-c2cccc(S(=O)(=O)N3CCCC(c4cccc(OC(C)(C)C(=O)NS(=O)(=O)c5cccs5)c4)C3)c2)cc1 (stereo not given)" measured_attribute="microsomal CLint" result_unit=µL/min/mg experimental_result=241
compound=CC(C)c1ccc(-c2cccc(S(=O)(=O)N3CCC[C@@H](c4cccc(OC(C)(C)C(=O)NS(=O)(=O)c5ccc(C(F)(F)F)cc5)c4)C3)c2)cc1 measured_attribute="microsomal CLint" result_unit=µL/min/mg experimental_result=93.4
compound="CC(C)c1ccc(-c2cccc(S(=O)(=O)N3CCCC(c4cccc(OC(C)(C)C(=O)NS(=O)(=O)c5ccc(C(F)(F)F)cc5)c4)C3)c2)cc1 (stereo not given)" measured_attribute="microsomal CLint" result_unit=µL/min/mg experimental_result=66.2
compound=CC(C)c1ccc(-c2cccc(S(=O)(=O)N3CCC[C@H](c4cccc(OC(C)(C)C(=O)NS(=O)(=O)c5ccc(C(F)(F)F)cc5)c4)C3)c2)cc1 measured_attribute="microsomal CLint" result_unit=µL/min/mg experimental_result=36.8

As a next step, examine the compound that follows.
**Q:** Entry CC(C)c1ccc(-c2cccc(S(=O)(=O)N3CCCC(c4cccc(OC(C)(C)C(=O)NS(=O)(=O)c5ccccc5)c4)C3)c2)cc1 (stereo not given) has what microsomal CLint?
**A:** 70
